- experimental_target: UniProt P35348
- assay: In vitro binding affinity against human Alpha-1A adrenergic receptor expressed in rat-1 fibroblasts cells
measured_property: log10 of IC50 (log10 of the value in µM)
Answers are given as log10 of IC50 in µM.

-- ask Looking for the measured log10 of IC50 of Cc1ncoc1-c1ccccc1NCC1=NCCN1 , can you help?
-- reply -0.72

-- ask Look at this compound and give its reported log10 of IC50. c1ccc(-c2ccccc2NCC2=NCCN2)nc1
-- reply -1.09

-- ask Entry c1cnc(-c2ccccc2NCC2=NCCN2)nc1 has what log10 of IC50?
-- reply -0.72

-- ask // lookup log10 of IC50 for CO/N=C/c1ccccc1NCC1=NCCN1
-- reply -0.55

-- ask Requested field: log10 of IC50. Item: c1ccc(-c2cnco2)c(NCC2=NCCN2)c1
-- reply -0.34

-- ask // lookup log10 of IC50 for c1ccc(-c2ncco2)c(NCC2=NCCN2)c1
-- reply -1.34

-- ask Find the recorded log10 of IC50 belonging to c1ccc(-c2ccno2)c(NCC2=NCCN2)c1 and report it.
-- reply -1.45

====

measured_property: IC50 (µM)
State the answer as a number, implicitly in µM.

-- ask Tell me reported IC50 for c1ccc(-c2cnco2)c(NCC2=NCCN2)c1 , tested with Alpha-1B adrenergic receptor (Homo sapiens, UniProt P35368).
Sequence (P35368 whole entry): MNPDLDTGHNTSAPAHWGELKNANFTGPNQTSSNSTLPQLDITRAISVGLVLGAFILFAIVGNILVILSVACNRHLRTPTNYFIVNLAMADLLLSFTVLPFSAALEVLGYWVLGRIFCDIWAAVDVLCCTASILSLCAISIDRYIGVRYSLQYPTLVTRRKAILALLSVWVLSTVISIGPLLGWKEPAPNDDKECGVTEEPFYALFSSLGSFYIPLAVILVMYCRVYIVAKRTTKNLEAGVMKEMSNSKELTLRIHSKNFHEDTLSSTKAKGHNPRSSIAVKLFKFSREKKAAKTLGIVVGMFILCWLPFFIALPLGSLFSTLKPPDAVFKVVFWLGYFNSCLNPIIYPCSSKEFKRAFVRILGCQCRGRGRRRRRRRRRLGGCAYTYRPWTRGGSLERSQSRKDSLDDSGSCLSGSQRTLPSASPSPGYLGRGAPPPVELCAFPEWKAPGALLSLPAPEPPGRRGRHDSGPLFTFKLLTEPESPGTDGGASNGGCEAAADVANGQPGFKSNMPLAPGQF
-- reply 0.229

====

- experimental_target: Alpha-1A adrenergic receptor (Homo sapiens, UniProt P35348)
- Sequence (P35348 whole entry): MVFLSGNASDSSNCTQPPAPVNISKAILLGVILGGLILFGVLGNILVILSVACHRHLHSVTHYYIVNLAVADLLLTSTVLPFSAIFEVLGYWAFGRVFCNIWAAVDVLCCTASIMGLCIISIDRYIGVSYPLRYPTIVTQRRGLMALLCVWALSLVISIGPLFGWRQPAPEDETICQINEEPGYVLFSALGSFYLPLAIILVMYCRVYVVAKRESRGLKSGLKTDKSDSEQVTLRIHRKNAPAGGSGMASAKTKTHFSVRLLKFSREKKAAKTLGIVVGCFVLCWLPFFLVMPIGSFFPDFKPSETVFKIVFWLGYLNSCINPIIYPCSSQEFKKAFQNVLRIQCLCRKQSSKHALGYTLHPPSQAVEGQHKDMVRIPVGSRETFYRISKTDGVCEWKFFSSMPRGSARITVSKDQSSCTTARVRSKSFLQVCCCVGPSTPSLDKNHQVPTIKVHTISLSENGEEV
- assay: In vitro activation of human alpha-1A receptor expressed in rat-1 fibroblasts via calcium mobilization through the Gq coupled PLC pathway as functional assay
measured_property: pEC50
Formally, pEC50 is defined as -log10 of the concentration c, with c in mol/L.

-- ask Item under review: c1ccc(-c2cnco2)c(NCC2=NCCN2)c1 . Reported pEC50?
-- reply 7.76

-- ask Name the recorded pEC50 for FC(F)(F)c1cccnc1-c1ccccc1NCC1=NCCN1 .
-- reply 6.17

-- ask Return reported pEC50; argument: c1ccc(-c2ccno2)c(NCC2=NCCN2)c1
-- reply 9.10

-- ask Value lookup for pEC50; key = CCO/N=C(\C)c1ccccc1NCC1=NCCN1
-- reply 7.28

-- ask Form field: reported pEC50 of CO/N=C/c1ccccc1NCC1=NCCN1
-- reply 7.29

-- ask I have this molecule here, c1ccc(-c2ccccc2NCC2=NCCN2)nc1 , and I need its recorded pEC50.
-- reply 8.17

====

Please respond with reported pEC50 for every item in the list.
- experimental_target: Alpha-1A adrenergic receptor (Homo sapiens, UniProt P35348)
- assay: In vitro activation of human alpha-1A receptor expressed in rat-1 fibroblasts via calcium mobilization through the Gq coupled PLC pathway as functional assay
Hey, just a heads up that pEC50 is the negative log base 10 of the concentration in molar.

-- ask What does the data say about its pEC50? Entry: Cc1ccc(-c2ccccc2NCC2=NCCN2)s1
-- reply 7.44

-- ask Value lookup for pEC50; key = Cc1nc(-c2ccccc2NCC2=NCCN2)co1
-- reply 6.49

-- ask Quick one: pEC50 of CC/C(=N/OC)c1ccccc1NCC1=NCCN1 ?
-- reply 7.06

-- ask Could you share which pEC50 value was measured for Cc1cc(-c2ccccc2NCC2=NCCN2)on1 ?
-- reply 7.41

-- ask Query (molecule): c1coc(-c2ccccc2NCC2=NCCN2)c1 ; field requested: pEC50
-- reply 9.33

-- ask Field request: pEC50 | item: CO/N=C(\C)c1ccccc1NCC1=NCCN1
-- reply 7.68

-- ask Consider the molecule Cc1nc(-c2ccccc2NCC2=NCCN2)cs1 and give its measured pEC50.
-- reply 8.35

-- ask Which pEC50 value belongs to Nc1nccc(-c2ccccc2NCC2=NCCN2)n1 ?
-- reply 7.37

-- ask May I ask what pEC50 has been recorded for c1cnc(-c2ccccc2NCC2=NCCN2)nc1 ?
-- reply 8.00

-- ask // returns reported pEC50 for input Cc1cccnc1-c1ccccc1NCC1=NCCN1
-- reply 7.61

-- ask Entry Cc1noc(-c2ccccc2NCC2=NCCN2)n1 has what pEC50?
-- reply 6.18

-- ask Given CC/C(=N\OC)c1ccccc1NCC1=NCCN1 , state its recorded pEC50.
-- reply 8.48

-- ask For Cc1ncoc1-c1ccccc1NCC1=NCCN1 , what is its reported pEC50?
-- reply 7.82

-- ask So what does the record say about pEC50 for Cc1ccsc1-c1ccccc1NCC1=NCCN1 ?
-- reply 9.07

Values were extracted from ChEMBL document CHEMBL1135065.
